System: SUDHL10
Test: Induction of caspase-3/7 activity (Caspase-Glo 3/7), SUDHL10
Format: cell-based
Settings: Homo sapiens, SU-DHL10, 3 h, caspase-3/7 induction, SUDHL10 cells, 3 h treatment; median
measure: EC50 (µM)
Numbers only here, please. The scale is µM.

Completed entries (count: 5):
Cc1c2c(nn1CC(F)(F)F)COCCCCn1c(C(=O)O)c(CCCOc3cccc4ccccc34)c3cccc-2c31 [Example 241] ... 17.1
Cc1nn(C)c2c1-c1cccc3c(CCCOc4cccc5ccccc45)c(C(=O)O)n(c13)CCCOC2 (single isomer, unassigned; enantiomer 1) [Example 044] ... 25.3
CCn1nc2c(c1C1CC1)-c1cccc3c(CCCOc4cccc5ccccc45)c(C(=O)O)n(c13)CCCCOC2 (racemic) [Example 081] ... 19
O=C(O)c1c(CCCOc2cccc3ccccc23)c2cccc3c2n1CCCCOCc1nn2c(c1-3)CCCC2 (racemic) [Example 253] ... 18.6
Cn1nc(CN2CCOCC2)c2c1COCC=CCn1c(C(=O)O)c(CCCOc3cccc4ccccc34)c3cccc-2c31 (single isomer, unassigned; enantiomer 1) [Example 133] ... 32.8

Please find the next molecule below.
Input: Provide EC50 value for the following molecule: O=C(O)c1c(CCCOc2cccc3ccccc23)c2cccc3c2n1CCCCOCc1nn2c(c1-3)COCC2 (racemic) [Example 250]
Output: 22
